Entries annotated with measured IC50
Biological target: His-Tagged hOGA (human O-GlcNAcase) (Homo sapiens (Human))
Sequence (O60502 whole entry): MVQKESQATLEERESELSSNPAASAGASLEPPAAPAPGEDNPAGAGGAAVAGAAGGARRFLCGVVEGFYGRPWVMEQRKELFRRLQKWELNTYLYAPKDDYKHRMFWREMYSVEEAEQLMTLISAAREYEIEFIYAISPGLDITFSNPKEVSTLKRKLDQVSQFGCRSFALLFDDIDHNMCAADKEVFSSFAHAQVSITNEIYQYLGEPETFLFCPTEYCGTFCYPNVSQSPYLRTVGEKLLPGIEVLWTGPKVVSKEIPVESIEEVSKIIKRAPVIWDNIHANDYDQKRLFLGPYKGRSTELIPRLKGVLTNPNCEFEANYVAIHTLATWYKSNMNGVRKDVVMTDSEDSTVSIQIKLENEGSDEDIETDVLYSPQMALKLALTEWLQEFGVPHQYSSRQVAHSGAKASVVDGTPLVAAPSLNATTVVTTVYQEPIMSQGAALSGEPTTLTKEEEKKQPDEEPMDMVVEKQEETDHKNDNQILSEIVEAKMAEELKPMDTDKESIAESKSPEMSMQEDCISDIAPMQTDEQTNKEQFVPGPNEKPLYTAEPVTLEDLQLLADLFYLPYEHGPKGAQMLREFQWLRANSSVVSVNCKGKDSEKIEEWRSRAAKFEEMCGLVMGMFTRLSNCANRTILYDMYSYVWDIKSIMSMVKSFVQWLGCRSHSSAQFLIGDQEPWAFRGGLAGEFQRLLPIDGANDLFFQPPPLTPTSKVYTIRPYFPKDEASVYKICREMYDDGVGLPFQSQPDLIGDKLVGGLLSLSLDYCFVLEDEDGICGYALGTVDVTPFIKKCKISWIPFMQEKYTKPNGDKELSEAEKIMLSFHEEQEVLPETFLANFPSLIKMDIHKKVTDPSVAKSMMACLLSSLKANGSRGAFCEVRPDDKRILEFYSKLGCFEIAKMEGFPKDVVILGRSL
Test: Human O-GlcNAcase enzyme inhibition assay (Example B01)
Type: biochemical
Conditions: OGA enzyme inhibition assay; activity range classes defined in μM; read-out: OGA IC50

compound	target-under-test	IC50
CC(C)NC(=O)c1cnc(N2CCN(C(C)c3ccc4c(c3)OCO4)CC2)s1 (racemic)	His-Tagged hOGA (human O-GlcNAcase) (Homo sapiens (Human))	0.05 to 0.2 µM
CC(C)c1csc(N2CCN(C(C)c3ccc4c(c3)OCO4)CC2)n1 (racemic)	His-Tagged hOGA (human O-GlcNAcase) (Homo sapiens (Human))	0.2 to 1 µM
CC(c1ccc2c(c1)OCO2)N1CCN(c2cnc(I)nc2)CC1 (racemic)	His-Tagged hOGA (human O-GlcNAcase) (Homo sapiens (Human))	0.05 to 0.2 µM
CC(=O)Nc1nnc(N2CCN(C(C)c3ccc4cc(Cl)cnc4c3)CC2)s1 (racemic)	His-Tagged hOGA (human O-GlcNAcase) (Homo sapiens (Human))	1 to 10 µM
CC(=O)Nc1ncc(N2CCN(C(C)c3ccc4c(c3)OCO4)CC2)s1 (racemic)	His-Tagged hOGA (human O-GlcNAcase) (Homo sapiens (Human))	< 0.05 µM
C[C@@H](c1ccc2c(c1)OCO2)N1CCN(c2ncc(C3(O)CCCCC3)cn2)CC1	His-Tagged hOGA (human O-GlcNAcase) (Homo sapiens (Human))	< 0.05 µM
CC(c1ccc2c(c1)OCO2)N1CCN(c2ccc(N)cn2)CC1 (racemic)	His-Tagged hOGA (human O-GlcNAcase) (Homo sapiens (Human))	0.05 to 0.2 µM
C[C@@H](c1ccc2c(c1)OCO2)N1CCN(c2ccc(C(C)(C)O)cn2)CC1	His-Tagged hOGA (human O-GlcNAcase) (Homo sapiens (Human))	< 0.05 µM
CC(c1ccc2c(c1)OCO2)N1CCN(c2ncc(N)cn2)CC1 (racemic)	His-Tagged hOGA (human O-GlcNAcase) (Homo sapiens (Human))	0.2 to 1 µM
CCC(=O)Nc1nnc(N2CCN(C(C)c3ccc4c(c3)OCO4)CC2)s1 (racemic)	His-Tagged hOGA (human O-GlcNAcase) (Homo sapiens (Human))	< 0.05 µM
C[C@@H](c1ccc2c(c1)OCO2)N1CCN(c2ncc(NC(=O)CCO)cn2)CC1	His-Tagged hOGA (human O-GlcNAcase) (Homo sapiens (Human))	< 0.05 µM
Cc1ccc(N2CCN(C(C)c3ccc4c(c3)OCO4)CC2)nc1 (racemic)	His-Tagged hOGA (human O-GlcNAcase) (Homo sapiens (Human))	0.2 to 1 µM
CC(c1ccc2nccnc2c1)N1CCN(c2nc3ccccc3s2)CC1 (racemic)	His-Tagged hOGA (human O-GlcNAcase) (Homo sapiens (Human))	1 to 10 µM
CC(c1ccc2c(c1)OCO2)N1CCN(c2nc3c(s2)C(=O)NCC3)CC1 (racemic)	His-Tagged hOGA (human O-GlcNAcase) (Homo sapiens (Human))	0.05 to 0.2 µM
CC(c1ccc2c(c1)OCO2)N1CCN(c2nc(CO)cs2)CC1 (racemic)	His-Tagged hOGA (human O-GlcNAcase) (Homo sapiens (Human))	0.05 to 0.2 µM
CC(c1ccc2c(c1)OCO2)N1CCN(c2ccnc(N)n2)CC1 (racemic)	His-Tagged hOGA (human O-GlcNAcase) (Homo sapiens (Human))	0.05 to 0.2 µM
C[C@@H](c1ccc2c(c1)OCO2)N1CCN(c2ccc(C(=O)N(C)C)cn2)CC1	His-Tagged hOGA (human O-GlcNAcase) (Homo sapiens (Human))	< 0.05 µM
COc1cnc(N2CCN([C@@H](C)c3ccc4c(c3)OCO4)CC2)nc1	His-Tagged hOGA (human O-GlcNAcase) (Homo sapiens (Human))	< 0.05 µM
CC(c1ccc2c(c1)OCO2)N1CCN(c2nc(C(=O)O)cs2)CC1 (racemic)	His-Tagged hOGA (human O-GlcNAcase) (Homo sapiens (Human))	0.05 to 0.2 µM
CC(=O)Nc1cnc(N2CCN(C(C)c3ccc4c(c3)OCCCO4)CC2)nc1 (racemic)	His-Tagged hOGA (human O-GlcNAcase) (Homo sapiens (Human))	0.2 to 1 µM
CNC(=O)c1cnc(N2CCN(C(C)c3ccc4c(c3)OCO4)CC2)nc1 (racemic)	His-Tagged hOGA (human O-GlcNAcase) (Homo sapiens (Human))	< 0.05 µM
CCOC(=O)c1cnc(N2CCN(C(C)c3ccc4c(c3)OCO4)CC2)s1 (racemic)	His-Tagged hOGA (human O-GlcNAcase) (Homo sapiens (Human))	0.2 to 1 µM
CCc1cnc(N2CCN(C(C)c3ccc4nccnc4c3)CC2)nc1 (racemic)	His-Tagged hOGA (human O-GlcNAcase) (Homo sapiens (Human))	0.05 to 0.2 µM
CC(O)c1cnc(N2CCN([C@@H](C)c3ccc4c(c3)OCO4)CC2)nc1 (single isomer, unassigned) [Example 197]	His-Tagged hOGA (human O-GlcNAcase) (Homo sapiens (Human))	< 0.05 µM
COc1cnc(N2CCN(C(C)c3ccc4nccnc4c3)CC2)nc1 (racemic)	His-Tagged hOGA (human O-GlcNAcase) (Homo sapiens (Human))	0.05 to 0.2 µM
CNC(=O)c1csc(N2CCN(C(C)c3ccc4c(c3)OCCO4)CC2)n1 (racemic)	His-Tagged hOGA (human O-GlcNAcase) (Homo sapiens (Human))	0.05 to 0.2 µM
CC(=O)Nc1cnc(N2CCN(C(C)c3ccc4scnc4c3)CC2)nc1 (racemic)	His-Tagged hOGA (human O-GlcNAcase) (Homo sapiens (Human))	< 0.05 µM
CC(c1ccc2c(c1)OCO2)N1CCN(c2nnc(NCc3ccc(Cl)cc3)s2)CC1 (racemic)	His-Tagged hOGA (human O-GlcNAcase) (Homo sapiens (Human))	0.05 to 0.2 µM
CC(=O)Nc1ccnc(N2CCN(C(C)c3ccc4c(c3)OCO4)CC2)n1 (racemic)	His-Tagged hOGA (human O-GlcNAcase) (Homo sapiens (Human))	0.05 to 0.2 µM
